- Test system: P94_40
- Test protocol: qHTS profiling for inhibitors of Plasmodium falciparum proliferation (AID 504749); further: nearly all actives have a fitted effect of over 60% in size
- Reported conditions: P. falciparum in erythrocytes, SYBR Green DNA, 72 h; series mostly up to 28.7 µM
Results filed as inconclusive are left out. Active and inactive are the calls of the source. The call rests on the fitted dose curve; in most records, active means well fitted inhibition curve with a large enough effect; inconclusive means small, poorly fitted or top-dose-only effect; inactive means flat fitted curve, though single readings scatter.
Assign a class; possible classes are active, inactive

Examples with answers:
O=C(O)c1ccc(OCCn2ccnc2)cc1 inactive
CC(=O)Oc1cccc2c1C(=O)c1c(OC(C)=O)cc(C(=O)O)cc1C2=O inactive
CC/C(=C(/CC)c1ccc(OP(=O)(O)O)cc1)c1ccc(OP(=O)(O)O)cc1 inactive

Request: Field: outcome | Entry: N=C(N)n1cccn1
Result: inactive

Request: Entry N=C(N)c1ccc(/C=C/c2ccc(C(=N)N)cc2O)cc1 : call = ?
Result: active

Request: Which outcome did this test record for the compound O=P(O)(O)OC[C@H](O)CO ?
Result: inactive

Request: Please state the recorded outcome for this compound: CCCCCCCCCC(=O)NO
Result: inactive

* * *

- Test protocol: S16 Schwann cell PMP22 intronic element beta-lactamase assay (AID 624044);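 further: 0% = DMSO and -100% = potassium clavulanate positive control; nearly all actives have a fitted effect of over 15% in size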
- Reported conditions: S16 rat Schwann cells, PMP22 element beta-lactamase FRET, 24 h; at 38.3 µM (top of the series) unless noted
Records with an inconclusive call do not appear. Calls of active or inactive are those of the source. Calls follow the shape of the full dose curve.
Catalogue of ratio activity, negative = inhibition values

Compound	ratio activity, negative = inhibition
O=C(CCCN1CCN2CCCC2C1)c1ccc(F)cc1 (configuration not stated)	-6.15% (inactive)
OCCCNc1ccccc1	0.736% (inactive)
CCN(CC)C(=O)c1cccnc1	2.08% (inactive)
OC[C@H]1O[C@@H]2O[C@H]3[C@H](O)[C@@H](O)[C@@H](O[C@H]4[C@H](O)[C@@H](O)[C@@H](O[C@H]5[C@H](O)[C@@H](O)[C@@H](O[C@H]6[C@H](O)[C@@H](O)[C@@H](O[C@H]7[C@H](O)[C@@H](O)[C@@H](O[C@H]1[C@H](O)[C@H]2O)O[C@@H]7CO)O[C@@H]6CO)O[C@@H]5CO)O[C@@H]4CO)O[C@@H]3CO	1.18% (inactive)

Request: ratio activity, negative = inhibition lookup needed for O=C(c1cc2ccccc2o1)N1CCN(Cc2ccccc2)CC1 , thanks.
Result: 2.34% (inactive)

Request: Given the entry CC(C)[C@H](N)C(=O)OCC(CO)OCn1cnc2c(=O)[nH]c(N)nc21 (some centres not stated) , report its measured ratio activity, negative = inhibition.
Result: 0.697% (inactive)

Request: State the recorded ratio activity, negative = inhibition for this entry: O=C(NCCNCC(O)COc1ccc(O)cc1)N1CCOCC1 (configuration not stated)
Result: 1.92% (inactive)

Request: Need ratio activity, negative = inhibition, item O=C(O)COc1ccc(CCNS(=O)(=O)c2ccccc2)s1
Result: -0.95% (inactive)

Request: Quick one: ratio activity, negative = inhibition of CCCC(CCC)C(=O)OC1C[C@H]2CC[C@@H](C1)[N+]2(C)C (some centres not stated) ?
Result: 6.3% (inactive)

* * *

- Test system: Zika virus NS2B-NS3 protease
- Test protocol: Primary screen GU AMC qHTS for Zika virus inhibitors (AID 1347154);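 further: 0% = no-inhibitor control and -100% = no-enzyme control; nearly all actives have a fitted effect of over 70% in size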
- Reported conditions: Zika NS2B-NS3 unlinked protease, AMC fluorogenic substrate; series mostly up to 54.1 µM
Records with an inconclusive call do not appear. Calls of active or inactive are those of the source. Calls follow the shape of the dose curve; as a rule, active = well fitted inhibition curve with a large enough effect; inconclusive = small, poorly fitted or top-dose-only effect; inactive = flat fitted curve, though single readings scatter.
Observable: activity change, negative = inhibition

Below are worked cases with known answers.
Compound	activity change, negative = inhibition
O=C(O)CCC(=O)c1ccc(-c2ccccc2)cc1	inactive
O=C(O)CCC/C=C\C[C@@H]1[C@@H](/C=C/[C@@H](O)COc2cccc(Cl)c2)[C@H](O)C[C@@H]1O	inactive
N[C@H](CC(=O)O)C(=O)O	inactive
CC/C=C\C/C=C\C/C=C\CCCCCCCC(=O)O	-0.651% [at 6.83 µM] (inactive)

Request: Give its activity change, negative = inhibition value. Item: COc1ccc(C[C@H](C)NC[C@@H](O)c2ccc(O)c(NC=O)c2)cc1
Result: inactive

Request: I would be grateful if you could share the reported activity change, negative = inhibition for CCC(C)[C@@H](N)C(=O)O (stereo partly specified) .
Result: inactive

* * *

- Test system: PC49
- Test protocol: qHTS profiling for inhibitors of Plasmodium falciparum proliferation (AID 504749); further: nearly all actives have a fitted effect of over 60% in size
- Reported conditions: P. falciparum in erythrocytes, SYBR Green DNA, 72 h; series mostly up to 28.7 µM
Records with an inconclusive call do not appear. Activity calls are given as the source filed them. Calls follow the shape of the dose curve; as a rule, active = well fitted inhibition curve with a large enough effect; inconclusive = small, poorly fitted or top-dose-only effect; inactive = flat fitted curve, though single readings scatter.
Tick one outcome: True = active, False = inactive

Molecule	Subject of test	Answer label
FC(F)(F)COCC(F)(F)F	PC49	False

Request: Please share the test call associated with O=C(NNCNNC(=O)c1ccncc1)c1ccncc1 .
Result: False

Request: What outcome does the record of this test show for COc1ccc(C(=O)c2ccc(C)cc2)c(O)c1 ?
Result: False

* * *

This listing pairs molecules with measured activity, negative = cell killing.
- Test protocol: Drug repurposing screens with cells derived from glioblastoma tumor samples (AID 1345199); further: on the % scale 0 is the no-effect control and ±100 the full control effect; nearly all actives have a fitted effect of over 40% in size
- Reported conditions: GBM patient neurospheres viability, ATP luminescence, 48 h; at 45.9 µM (top of the series); tumour line D
Results filed as inconclusive are left out. Active and inactive are the calls of the source. Calls follow the shape of the dose curve; as a rule, active = well fitted inhibition curve with a large enough effect; inconclusive = small, poorly fitted or top-dose-only effect; inactive = flat fitted curve, though single readings scatter.

Request: Need activity, negative = cell killing, item CCCC(=O)O
Result: -13.2% (inactive)

Request: Requested read-out: activity, negative = cell killing. Entry: CCCCCCCCCCCCCCCCCCOCC(COP(=O)([O-])OCC[N+](C)(C)C)OC (stereo not given)
Result: -24.7% (inactive)

Request: If you can, please state the reported activity, negative = cell killing value of COc1ccc(C[C@H](C)NC[C@@H](O)c2ccc(O)c(NC=O)c2)cc1 .
Result: -10.9% (inactive)

Request: I have this molecule here, O=C(O)CCC/C=C\C[C@@H]1[C@@H](/C=C/[C@@H](O)COc2cccc(C(F)(F)F)c2)[C@H](O)C[C@@H]1O , and I need its recorded activity, negative = cell killing.
Result: 2.71% (inactive)

Request: # activity, negative = cell killing lookup, item CCOC(=O)c1c[nH]c2cc(OCC(C)C)c(OCC(C)C)cc2c1=O
Result: -17.4% (inactive)

* * *

- Subject of test: Voltage-gated inwardly rectifying potassium channel KCNH2 (Homo sapiens) (UniProt Q12809)
- Sequence (Q12809 whole entry, looked up): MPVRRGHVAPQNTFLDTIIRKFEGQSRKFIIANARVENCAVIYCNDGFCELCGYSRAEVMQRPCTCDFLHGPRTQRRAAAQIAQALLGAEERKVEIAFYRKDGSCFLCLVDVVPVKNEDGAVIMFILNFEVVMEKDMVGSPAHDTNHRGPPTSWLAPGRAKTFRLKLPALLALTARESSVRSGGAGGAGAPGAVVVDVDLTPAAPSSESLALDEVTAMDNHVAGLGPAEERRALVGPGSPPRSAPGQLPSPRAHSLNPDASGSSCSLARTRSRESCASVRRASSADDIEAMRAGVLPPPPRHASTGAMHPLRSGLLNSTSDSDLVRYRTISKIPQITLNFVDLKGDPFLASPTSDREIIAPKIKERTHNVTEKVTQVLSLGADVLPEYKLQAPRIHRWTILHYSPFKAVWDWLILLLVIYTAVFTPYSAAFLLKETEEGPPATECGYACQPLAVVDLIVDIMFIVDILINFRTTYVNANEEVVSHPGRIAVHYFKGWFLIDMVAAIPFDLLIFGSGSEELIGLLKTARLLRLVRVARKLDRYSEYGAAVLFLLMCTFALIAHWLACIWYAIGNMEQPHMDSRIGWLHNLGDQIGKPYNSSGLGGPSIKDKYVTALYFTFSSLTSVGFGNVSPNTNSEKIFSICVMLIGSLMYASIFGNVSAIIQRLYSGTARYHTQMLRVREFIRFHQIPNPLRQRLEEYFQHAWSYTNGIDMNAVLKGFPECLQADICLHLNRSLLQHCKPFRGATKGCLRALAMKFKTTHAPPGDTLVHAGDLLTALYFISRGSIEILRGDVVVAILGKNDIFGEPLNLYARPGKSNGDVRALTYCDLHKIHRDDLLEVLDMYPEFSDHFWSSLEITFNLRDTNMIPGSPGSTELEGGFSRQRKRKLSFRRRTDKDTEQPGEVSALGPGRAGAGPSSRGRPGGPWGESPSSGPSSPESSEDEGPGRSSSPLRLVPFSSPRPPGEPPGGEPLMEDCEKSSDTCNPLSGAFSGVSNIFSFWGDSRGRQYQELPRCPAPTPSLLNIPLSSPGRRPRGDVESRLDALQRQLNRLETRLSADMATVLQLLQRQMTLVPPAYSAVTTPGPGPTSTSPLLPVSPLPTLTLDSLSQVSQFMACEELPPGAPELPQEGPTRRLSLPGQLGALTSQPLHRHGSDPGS
- Test protocol: qHTS Assay for Small Molecule Inhibitors of the Human hERG Channel Activity (AID 588834);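 further: lower thallium flux fluorescence means stronger hERG block; nearly all actives have a fitted effect of over 50% in size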
- Reported conditions: U2OS BacMam hERG, FluxOR thallium flux fluorescence; series mostly up to 46.1 µM
Inconclusive results are not listed. The source made the active and inactive calls. The call rests on the fitted dose curve; in most records, active means well fitted inhibition curve with a large enough effect; inconclusive means small, poorly fitted or top-dose-only effect; inactive means flat fitted curve, though single readings scatter.
Choose one outcome from this list and give only that: Yes for active, No for inactive

These solved cases illustrate the format of a correct answer.
Molecule	Answer label
COc1ccc(C(=O)/C(Br)=C\C(=O)O)cc1	No
COC(=O)[C@H]1[C@H]2C[C@@H]3c4[nH]c5cc(OC)ccc5c4CCN3C[C@H]2C[C@H](OC)[C@@H]1OC	Yes
C=N[C@@H](C(=O)N[C@@H]1C(=O)N2[C@@H]1SC(C)(C)[C@@H]2C(=O)O)c1ccccc1	No
Cc1ccc(C(C)(C)c2ccc(C)cc2)cc1	No
O=C1NCCN1c1ncc([N+](=O)[O-])s1	No

Request: Assay outcome for C=O : what was it?
Result: No

Request: Test call, this molecule: Cc1cccc(C)c1NC(=O)NC1=CCCN1C
Result: No

Request: What did the test return for OCC(O)CO ?
Result: No

Request: What outcome does the record of this test show for Cc1cccc(Nc2ncccc2C(=O)O)c1C ?
Result: No

Request: Each molecule tested received a call. Report the one for Cc1cc(=O)c(C(=O)N[C@@H](C(=O)N[C@@H]2C(=O)N3C(C(=O)O)=C(CSc4nnnn4C)CS[C@H]23)c2ccc(O)cc2)c[nH]1 .
Result: No

* * *

- Subject of test: Ubiquitin carboxyl-terminal hydrolase 1 (Homo sapiens)
- Test protocol: Inhibitors of USP1/UAF1: Pilot qHTS (AID 504865); further: nearly all actives have a fitted effect of over 35% in size
- Reported conditions: purified USP1/UAF1, Ub-rhodamine cleavage fluorescence; series mostly up to 114 µM
Inconclusive results are not listed. The source made the active and inactive calls. Calls follow the shape of the dose curve; as a rule, active = well fitted inhibition curve with a large enough effect; inconclusive = small, poorly fitted or top-dose-only effect; inactive = flat fitted curve, though single readings scatter.
Write down the outcome that applies. Available outcomes: true (1) = active, false (0) = inactive

Solved entries (count: 4):
Molecule	Answer label
CC1CCCCN1CCCOC(=O)c1ccccc1 (stereo not given)	false (0)
OCCOCCOCCO	false (0)
NC(=S)N=Nc1ccc(NN=C(N)N)cc1	true (1)
OCc1ccccc1	false (0)

Request: So what was the verdict on O=C(NCCNCC(O)COc1ccc(O)cc1)N1CCOCC1 (stereo not given) in this test?
Result: false (0)

Request: Could you check what this test reported for O=C(O)/C=C/C(=O)Nc1ccc(S(=O)(=O)Nc2nccs2)cc1 ?
Result: false (0)

Request: State the result this test recorded for CC(=O)NCCCS(=O)(=O)O .
Result: false (0)

Request: What was the test verdict on N=C(N)n1cccn1 ?
Result: false (0)

Request: // return assay outcome for COC1=C(OC)C(=O)C(C/C=C(\C)CC/C=C(\C)CC/C=C(\C)CC/C=C(\C)CC/C=C(\C)CC/C=C(\C)CC/C=C(\C)CC/C=C(\C)CC/C=C(\C)CCC=C(C)C)=C(C)C1=O
Result: false (0)

Request: Hello, I am checking results. What call was entered for C[C@@](Cc1ccc(O)c(O)c1)(NN)C(=O)O ?
Result: false (0)

Request: State the result this test recorded for O=P(O)(O)OC[C@H](O)CO .
Result: false (0)

Sourced from PubChem BioAssay (NCATS)
